Source of measurements: PubChem BioAssay

test system: Human papillomavirus type 1a E7 protein (residues 1-88); assay: HPV1a E7 small-molecule binders, primary screen, biochemical, small-molecule microarray, residues 1-88, 635 nm (AID 1129); conditions: small-molecule microarray binding, fluorescence 635 nm; higher = more signal
I would appreciate it if you labelled entries 1.0 when composite z-score is 0.4 or higher, otherwise 0.0.

compound | target.or.system | discrete.label
CCOC(=O)NN=C1C[C@@H](O)[C@@H](O)[C@@H]2[C@@H]3C(=O)N(c4ccc(F)cc4F)C(=O)[C@@H]3CC[C@H]12 | Human papillomavirus type 1a E7 protein (residues 1-88) | 0.0
CC(C)=NOC(C)CN1CCCc2nc(C)c(C)cc21 (stereo not drawn) | Human papillomavirus type 1a E7 protein (residues 1-88) | 1.0
C[C@@H]1CC[C@H]2C(=O)O[C@@H](CN=[N+]=[N-])CN2[C@H]1c1ccc(Br)cc1 | Human papillomavirus type 1a E7 protein (residues 1-88) | 1.0
COC(=O)[C@H](C)NC(=O)CCC1CC(OC(=O)NCCc2ccc(F)cc2)CC2(CCCC(COC(=O)NCC3CCCCC3)O2)O1 (stereo partly drawn) | Human papillomavirus type 1a E7 protein (residues 1-88) | 1.0
CC(C)[C@@H](OCc1ccccc1)[C@H](C)C=NOC[C@@H](O)[C@H]1O[C@@H]2OC(C)(C)O[C@@H]2[C@H]1O | Human papillomavirus type 1a E7 protein (residues 1-88) | 0.0
CC(CCC(=O)OC[C@H]1O[C@H](C#Cc2ccccc2)C=C[C@@H]1Oc1ccc(C)cc1)=NO[C@H](C)c1cn([C@@H]2COC[C@H]2O)nn1 | Human papillomavirus type 1a E7 protein (residues 1-88) | 0.0
CC(C)C(=O)N[C@H]1CCCN1C(=O)C=Cc1ccccc1 | Human papillomavirus type 1a E7 protein (residues 1-88) | 1.0

* * *

target: Neurogenic locus notch homolog protein 2 (Homo sapiens); assay: Notch2 binders on small-molecule microarrays, primary screen, biochemical, small-molecule microarray, 635 nm fluorescence, stem cell growth factors (AID 1073); conditions: Notch2 binding, higher = more signal
assay.endpoint: composite z-score

input.smiles | assay.endpoint | numeric.result
COc1cccc([C@H](O)Cn2cc(-c3ccc(CON=C(C)C)cc3)nn2)c1 | composite z-score | -0.193
COC(=O)[C@@H]1CC[C@H](C)[C@@H](c2ccc(Br)cc2)N1C[C@H](O)CN=[N+]=[N-] | composite z-score | -0.0324
CCO[C@H](c1cc(OC)cc([N+](=O)[O-])c1OC)[C@H](C)[C@@H](OC)[C@H](C)C=CCC(=O)OC | composite z-score | 0.174
O=C1[C@H]2[C@H]3[C@H](O)[C@H](O)CC(=NO[C@@H]4O[C@H](CO)[C@@H](O)[C@H](O)[C@H]4O)[C@@H]3CC[C@H]2C(=O)N1c1cccc(Oc2ccccc2)c1 | composite z-score | 0.628

* * *

# reported composite z-score; entries follow
biological target: Fibroblast growth factor 10 (Homo sapiens) (UniProt O15520); test: FGF10 binders on small-molecule microarrays, primary screen, biochemical, small-molecule microarray, 635 nm fluorescence (AID 1102); conditions: FGF10 binding, fluorescence 635 nm, higher = more signal
Sequence (O15520 whole entry, looked up): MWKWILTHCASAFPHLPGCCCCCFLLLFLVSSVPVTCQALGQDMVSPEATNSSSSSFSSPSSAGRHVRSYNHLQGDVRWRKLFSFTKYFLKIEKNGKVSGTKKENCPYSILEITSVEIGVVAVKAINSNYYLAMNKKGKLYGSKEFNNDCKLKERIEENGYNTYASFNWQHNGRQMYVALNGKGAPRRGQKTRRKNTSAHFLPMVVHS

input.smiles | composite z-score
O=C1C[C@@H](O)[C@@H](O)[C@@H]2[C@@H]3C(=O)N(Cc4ccccc4)C(=O)[C@@H]3CC[C@H]12 | 0.56
CON=C[C@@H](OC)[C@H](C)C=CCC(=O)OC | -0.135
C[C@@H](c1ccccc1)N1C(=O)[C@H]2[C@H]3[C@H](O)[C@H](O)CC(=NOC[C@@H](O)COCc4ccco4)[C@H]3CC[C@H]2C1=O | -0.185
CON=C(C)CCN1CCCCc2nc(C)c(C)cc21 | 0.443
C#CCCCON=C1C[C@@H](O)[C@@H](O)[C@@H]2[C@@H]3C(=O)N([C@@H](C)c4ccccc4)C(=O)[C@@H]3CC[C@@H]12 | -0.723
CCc1cc2c(nc1CC)CCN(CCC(C)=NO[C@@H]1O[C@H](COC(C)=O)[C@@H](OC(C)=O)[C@H](OC(C)=O)[C@H]1OC(C)=O)C2 | 1.14
O=C1C[C@@H](O)[C@@H](O)[C@@H]2[C@@H]3C(=O)N(c4ccc(F)cc4F)C(=O)[C@@H]3CC[C@H]12 | 0.514
C[C@@H](c1ccccc1)N1C(=O)[C@H]2[C@H]3[C@H](O)[C@H](O)CC(=NNC(=O)OCc4ccccc4)[C@@H]3CC[C@H]2C1=O | -0.0948

* * *

biological target: Luciferin 4-monooxygenase (Photinus pyralis); test: firefly luciferase enzyme inhibitors, primary screen, biochemical, luminescence, purified enzyme, 2006 set (AID 1141); settings: SteadyGlo luminescence, 30 min, higher = more signal, called active from +8 up or from −8 down;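 note: cell-free assay with purified firefly luciferase at 100 ng per well in PBS; test concentration not given here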
# reported z-score; entries follow
assay.endpoint: z-score

compound | numeric.result
O=C1[C@H]2[C@H]3[C@H](O)[C@H](O)CC(=NOC[C@@H](O)COCc4ccco4)[C@@H]3CC[C@H]2C(=O)N1C1CCCCC1 | 0.0055
CCOC(=O)[C@H](Cc1ccccc1)NC(=O)CCC1CC(OC(=O)NCc2ccc3c(c2)OCO3)CC2(CCCC(COC(=O)NCCc3ccc(Cl)cc3)O2)O1 (stereo partly drawn) | -0.144
CN1CCc2nc(-c3ccccc3)c(-c3ccccc3)cc2C1 | -0.133
O=C1[C@H]2[C@H]3[C@H](O)[C@H](O)CC(=NO[C@@H]4O[C@H](CO)[C@@H](O)[C@H](O)[C@H]4O)[C@H]3CC[C@H]2C(=O)N1c1ccc(F)cc1F | 1.42
COC(=O)CC=C[C@@H](C)[C@@H](C=NOC(C)CN1CCCCc2nc(C)c(C)cc21)OC (stereo partly drawn) | -0.183
CCN1C(C)=C(C(=O)OC)[C@@H](c2ccccc2)N2C(=O)[C@](O)(C(=O)OC)CC(C(C)=O)=C12 | -0.695
CC(C)=NOC(C)CN1CCCc2nc(C)c(C)cc21 (stereo not drawn) | 0.57
CC(CCN1CCc2nc(-c3ccccc3)c(-c3ccccc3)cc2C1)=NO[C@@H](C)c1cc(-c2c(C)cc(C)cc2C)no1 | 0.618

* * *

assay: binders of probe aFST on microarray, primary screen, stem cell growth factor project, biochemical, small-molecule microarray, fluorescence 635/667 (AID 1086); settings: higher = more signal;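 note: score merges 667 nm fluorescence with signal-to-noise of each printed compound spot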
I would appreciate it if you labelled entries y when composite z-score is 0.2 or higher, otherwise n.

molecule | discrete.label
CCOC(=O)[C@H](CC(C)C)NC(=O)CCC1CC(OC(=O)NCCc2ccc(F)cc2)CC2(CCCC(COC(=O)NCCOC)O2)O1 (some centres not stated) | n
CC(=O)OC[C@H]1O[C@H](CC=NO[C@H](C)c2cn([C@@H]3COC[C@H]3O)nn2)C=C[C@@H]1OC(C)=O | n
C[C@@H](c1ccccc1)N1C(=O)[C@H]2[C@H]3[C@H](O)[C@H](O)CC(=NOCc4ccccc4)[C@@H]3CC[C@H]2C1=O | y
CCN1C(=O)[C@H]2[C@H]3[C@H](O)[C@H](O)CC(=NOCC=C(C)CCC=C(C)C)[C@@H]3CC[C@H]2C1=O | y
C#CCCCON=C1C[C@@H](O)[C@@H](O)[C@@H]2[C@@H]3C(=O)N([C@@H](C)c4ccccc4)C(=O)[C@@H]3CC[C@@H]12 | n
O=C1C[C@H](c2ccccc2)[C@H](c2ccc(Br)cc2)O1 | n
CCOC(=O)[C@H](CC(C)C)NC(=O)CCC1CC(OC(=O)NCCc2ccc(F)cc2)CC2(CCCC(COC(=O)NCc3cccc4ccccc34)O2)O1 (some centres not stated) | y

* * *

tested on: wheat germ agglutinin (Triticum aestivum), Alexa647-labelled; test: wheat germ agglutinin binders on compound microarrays, profiling panel, artefact control for SMM control-protein annotation, biochemical, small-molecule microarray, 635/667 nm fluorescence (AID 1140); details: WGA-A647 binding, 635 nm fluorescence, higher = more signal;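 note: score merges 667 nm feature emission with signal to noise over triplicate slides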
# reported composite z-score; entries follow
assay.endpoint: composite z-score

compound | result
CC(C)=CCCC(C)=CCON=C1C[C@@H](O)[C@@H](O)[C@@H]2[C@@H]3C(=O)N(C4CCCCC4)C(=O)[C@@H]3CC[C@H]12 | -0.0924
COC(=O)CC=C[C@@H](C)[C@@H](C=NOC(C)CN1CCCCc2nc(C)c(C)cc21)OC (stereo partly drawn) | 0.259
CC(C)(C)N1C(=O)[C@H]2[C@H]3[C@H](O)[C@H](O)CC(=NOC[C@@H](O)COCc4ccco4)[C@@H]3CC[C@H]2C1=O | 0.915
O=C1CCCC=C1C(O)c1ccc([N+](=O)[O-])cc1 (stereo not drawn) | -0.199
CC(C)[C@@H](OCc1ccccc1)[C@H](C)C=NO[C@@H](C)c1cn([C@H](CO)Cc2ccccc2)nn1 | 0.0578
COc1ccc(COC(=O)NN=C2C[C@@H](O)[C@@H](O)[C@@H]3[C@@H]4C(=O)N(C5CCCCC5)C(=O)[C@@H]4CC[C@@H]23)cc1 | 0.401
CCOC(=O)[C@H](CC(C)C)NC(=O)CCC1CC(OC(=O)NCCc2ccc(F)cc2)CC2(CCCC(COC(=O)NCc3cccc(C(F)(F)F)c3)O2)O1 (stereo partly drawn) | 0.296
C[C@@H]1CC[C@H]2C(=O)O[C@@H](CN=[N+]=[N-])CN2[C@H]1c1ccc(Br)cc1 | 0.829
